# EXPERIMENT_NOTES: Ampicillin blood level after suppository with saponin A, B or C (suppository tests)
# Type: in vivo
# CONDITION_PARAMETERS: rat, in vivo, 50 mg/kg
RESULT_TYPE: concentration at 1 h (ng/mL)
Report the figure in ng/mL without appending any unit label.

Inquiry: Requested field: concentration at 1 h. Item: CC1(C)S[C@@H]2[C@H](NC(=O)[C@H](N)c3ccccc3)C(=O)N2[C@H]1C(=O)O [ampicillin sodium]
Reply text: 930

###

# EXPERIMENT_NOTES: Ampicillin blood level after injection with galenical extract or isolated saponin into rat duodenal loop (Experimental method A)
# CONDITION_PARAMETERS: in vivo, Concentration in Blood, 10 min. (Control)
RESULT_TYPE: concentration at 10 min

Inquiry: Entry CC1(C)S[C@@H]2[C@H](NC(=O)[C@H](N)c3ccccc3)C(=O)N2[C@H]1C(=O)O [ampicillin sodium] has what concentration at 10 min?
Reply text: 0.6 µg/mL

###

# EXPERIMENT_NOTES: Ampicillin blood level after suppository with saponin A, B or C (suppository tests)
# Type: in vivo
# CONDITION_PARAMETERS: rat, in vivo, 50 mg/kg
RESULT_TYPE: concentration at 35 min (ng/mL)
Write the answer as a number in ng/mL, unit excluded.

Inquiry: concentration at 35 min lookup needed for CC1(C)S[C@@H]2[C@H](NC(=O)[C@H](N)c3ccccc3)C(=O)N2[C@H]1C(=O)O [ampicillin sodium] , thanks.
Reply text: 1910

###

# EXPERIMENT_NOTES: Ampicillin blood level after injection with galenical extract or isolated saponin into rat duodenal loop (Experimental method A)
# CONDITION_PARAMETERS: in vivo, Concentration in Blood, 40 min. (Control)
RESULT_TYPE: concentration at 40 min (ng/mL)
Unit ng/mL implied. Number only.

Inquiry: Need concentration at 40 min of CC1(C)S[C@@H]2[C@H](NC(=O)[C@H](N)c3ccccc3)C(=O)N2[C@H]1C(=O)O [ampicillin sodium] , thanks.
Reply text: 1100

###

# EXPERIMENT_NOTES: Ampicillin blood level after suppository with saponin A, B or C (suppository tests)
# Format: in vivo
# CONDITION_PARAMETERS: rat, in vivo, 50 mg/kg
# Experimental: The effectiveness of the saponins A, B and C when they were formulated into suppositories was tested in a method similar to the above Experimental method A. Thus, rats weighing 180 to 220 g were anesthetized with 30 mg/kg of pentobarbital sodium and fixed by supination on a water bed made of a metal through which water regulated at a constant temperature of 39° C. was circulated. […]
RESULT_TYPE: concentration at 10 min (ng/mL)
Reply with just the number (in ng/mL).

Inquiry: What does the record list as concentration at 10 min for CC1(C)S[C@@H]2[C@H](NC(=O)[C@H](N)c3ccccc3)C(=O)N2[C@H]1C(=O)O [ampicillin sodium] ?
Reply text: 3980

###

# EXPERIMENT_NOTES: Ampicillin blood level after injection with galenical extract or isolated saponin into rat duodenal loop (Experimental method A)
# CONDITION_PARAMETERS: in vivo, Concentration in Blood, 240 min. (Control)
RESULT_TYPE: concentration at 4 h (ng/mL)
Give just the numeric value; ng/mL need not be written.

Inquiry: Any idea what its concentration at 4 h is? The molecule is CC1(C)S[C@@H]2[C@H](NC(=O)[C@H](N)c3ccccc3)C(=O)N2[C@H]1C(=O)O [ampicillin sodium]
Reply text: 500

Values were extracted from patent US4501734A.
